Assay: NCI Yeast Anticancer Drug Screen. Data for the mec2-1 strain (AID 157)
Conditions: S. cerevisiae mec2-1 strain, at 5.0 µM (retest, dose inferred, filed as 0.5)
About 79,000 compounds went through this panel and 15% of them were active in at least one assay; those are over-represented in the sample as a whole. Activity calls are given as the source filed them. No stated cut-off is given here; in the data, active means growth inhibition above about 70%; inactive means the rest. Where a SMILES comes first, the peptide text is derived from it. [ ]: non-standard residue; d: D form. Phe(4-Cl) = N[CH](Cc1ccc(Cl)cc1)C(=O)O; 3Pal = N[CH](Cc1cccnc1)C(=O)O
Use one of these outcomes when replying: true (1) = active, false (0) = inactive

Consider the following illustrative entries.
{"columns": ["compound", "class.assignment"],
 "data": [
  ["CC(/C=C/c1cccs1)=N\\NC(=S)NCC(C)C", "false (0)"],
  ["CC(=O)NC(Cc1ccc(Cl)cc1)C(=O)NC(Cc1ccc(Cl)cc1)C(=O)NC(Cc1cccnc1)C(=O)NC(CO)C(=O)NC(Cc1ccc(O)cc1)C(=O)NC(CCCN=C(N)N)C(=O)NC(CC(C)C)C(=O)NC(CCCN=C(N)N)C(=O)N1CCCC1C(=O)NC(C)C(=O)O (centres undefined) (Ac-[Phe(4-Cl)][Phe(4-Cl)][3Pal]SYRLRPA-OH; configuration not given here)", "false (0)"],
  ["Clc1ccc(OCC(Cn2ccnc2)c2ccc(Cl)cc2)cc1 (centres undefined)", "false (0)"]
]}

Recorded test outcome, item `C[n+]1c(-c2ccc(/C=N\NC(=O)c3ccc(C(=O)N/N=C/c4ccc(-c5cn6ccsc6[n+]5C)cc4)cc3)cc2)cn2ccsc21`
true (1)

----------
Assay: NCI Yeast Anticancer Drug Screen. Data for the mlh1 rad18 strain (AID 175)
Conditions: S. cerevisiae mlh1 rad18 strain growth inhibition; at 50.0 µM (retest, dose inferred, filed as 5.0); stronger effect = higher value
Method: Growth inhibition of yeast strains with defined genetic alterations is measured as a screen for potential anti-cancer activity. Selected strains with alterations in DNA damage repair or cell cycle control were exposed to compounds and growth inhibition was measured relative to vehicle treated controls. The strain used in this assay is mlh1 rad18
Compounds without any hit were thinned out: in the full panel of roughly 79,000, 15% have a hit.
measure: growth inhibition (%)
Quick reminder: number only, in %, skip the unit.

Illustrative cases are given below, each with its answer.
{"columns": ["compound", "measure", "unit.abbreviation", "quantitative.readout"],
 "data": [
  ["CCOC(=O)C12CCSC1C1(C#N)C(C#N)=CC2(N=P(c2ccccc2)(c2ccccc2)c2ccccc2)n2c(=O)n(-c3ccccc3)c(=O)n21 (stereo not given)", "growth inhibition", "%", 31],
  ["O=C(O)c1c2c(cc3c1CC1(Cc4ccccc4C1=O)C3)CCC2 (stereo not given)", "growth inhibition", "%", 24],
  ["Clc1nssc1=Nc1nonc1-c1ccccc1", "growth inhibition", "%", 98],
  ["CCCCC(=S)N1CCN(c2ccccc2)CC1", "growth inhibition", "%", -9],
  ["CN(C)C(=S)/N=c1\\ss/c(=N\\C(=S)N(C)C)n1-c1ccc(Cl)cc1", "growth inhibition", "%", 29]
]}

Specify measured growth inhibition for `Cc1nc(Nc2ccc(Cl)cc2)sc1C(=O)Nc1cccc2c(=O)[nH][nH]c(=O)c12` .
14

Specify measured growth inhibition for NC(CSC1(c2ccc(Cl)cc2)c2ccccc2-c2ccccc21)C(=O)O (stereo not given) .
55

Specify measured growth inhibition for `CN(C)CCOC(=O)c1ccccc1` .
78

Specify measured growth inhibition for `O=C1c2cccc(O)c2C(=O)c2c(O)cc(CO)cc21` .
97

Specify measured growth inhibition for `O=c1[nH]c2ccc([N+](=O)[O-])c(Cl)c2c2ccccc12` .
96

Specify measured growth inhibition for `CN(C)CC/C(=N\Nc1ccc(Cl)cc1Cl)c1ccccc1` .
100

Specify measured growth inhibition for CC(O)C(NC(=O)OCc1ccccc1)C(=O)OC(c1ccccc1)c1ccccc1 (stereo not given) .
97

Specify measured growth inhibition for CC(C)NC(=O)OCCS(=O)c1c(Cl)c(Cl)nn1C (stereo not given) .
56

Specify measured growth inhibition for `c1csc(-c2nnc(C34CC5CC(CC(C5)C3)C4)o2)c1` .
98

----------
Test: NCI Yeast Anticancer Drug Screen. Data for the sgs1 mgt1 strain (AID 161);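 further: 0% = growth of cultures given vehicle only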
Settings: S. cerevisiae sgs1 mgt1 strain, at 5.0 µM (retest, dose inferred, filed as 0.5), stronger effect = higher value
This is part of a sample that, as a whole, favours compounds with a hit. Of some 79,000 tested, about 15% had one in any assay. Active and inactive are the calls of the source. No stated cut-off is given here; in the data, active means growth inhibition above about 70%; inactive means the rest.
# growth inhibition per record follows

Illustrative cases are given below, each with its answer.
{"columns": ["molecule", "growth inhibition"],
 "data": [
  ["O[C@H]1c2cccn2-c2ccccc2S[C@H]1c1ccccc1", "3% (inactive)"],
  ["FC(F)(F)c1nc(SCc2ccc(Cl)cc2)n[nH]1", "-7% (inactive)"],
  ["CCCCC(=S)N1CCN(c2ccccc2)CC1", "5% (inactive)"],
  ["Cc1ccc(C2(O)c3ccccc3-c3ccccc32)cc1", "15% (inactive)"],
  ["CCCCOS(=O)(=O)c1ccc(C)cc1", "-8% (inactive)"]
]}

We now examine a further molecule.
Specify measured growth inhibition for `C1C[OH+]CC[OH+]CCNCC[OH+]CC[OH+]CCN1.[Cl-].[Pt+4]` .
29% (inactive)

----------
Experiment: NCI Yeast Anticancer Drug Screen. Data for the sgs1 mgt1 strain (AID 161);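 further: 0% = growth of cultures given vehicle only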
Conditions: S. cerevisiae sgs1 mgt1 strain, at 5.0 µM (retest, dose inferred, filed as 0.5), stronger effect = higher value
This is part of a sample that, as a whole, favours compounds with a hit. Of some 79,000 tested, about 15% had one in any assay.
measure: growth inhibition (%)
Quick reminder: number only, in %, skip the unit.

Illustrative cases are given below, each with its answer.
{"columns": ["molecule", "measure", "quantitative.readout"],
 "data": [
  ["CCOC(=O)c1sc2c(c1O)c(=O)n(-c1ccccc1)c(=S)n2-c1ccccc1", "growth inhibition", 83],
  ["CCC(C)(O)C#Cc1ccc(C)nc1 (stereo not drawn)", "growth inhibition", -2],
  ["COc1ccc2c(c1)n([O-])c1cc(C#N)ccc1[n+]2=O", "growth inhibition", 41],
  ["COc1ccc(N=Cc2ccccc2O)cc1", "growth inhibition", -8],
  ["Cc1ccc(NC(=O)CC2SC(N)=NC2=O)cc1C (stereo not drawn)", "growth inhibition", -2],
  ["O=C1NC(c2ccccc2)(c2cccs2)C(=O)N1C1c2ccccc2Oc2ccccc21 (stereo not drawn)", "growth inhibition", -18],
  ["COC(=O)c1ccc(Cl)c(Cl)c1", "growth inhibition", 2],
  ["COC(=O)CC1SC(=S)N(Cc2ccc(Cl)cc2)C1=O (stereo not drawn)", "growth inhibition", 2],
  ["CCCCCCCCCCCC[S+](C)C", "growth inhibition", 36],
  ["CCCCCCCCC/C=C1\\CCC(CN(C)C)C1=O (stereo not drawn)", "growth inhibition", -28]
]}

Specify measured growth inhibition for CC(=O)C1C(=O)C=C(C)OC1=O (stereo not drawn) .
1

Specify measured growth inhibition for `CCC(=O)Nc1ccc(NC(C)=O)cc1` .
-5

Specify measured growth inhibition for CCOC(=O)C1=C(c2ccccc2)OC(N)=C(C#N)C1c1ccc(C)cc1 (stereo not drawn) .
10

----------
Test: NCI Yeast Anticancer Drug Screen. Data for the mec2-1 strain (AID 157)
Conditions: S. cerevisiae mec2-1 strain, at 50.0 µM (retest, dose inferred, filed as 5.0)
This is part of a sample that, as a whole, favours compounds with a hit. Of some 79,000 tested, about 15% had one in any assay. Activity calls are given as the source filed them. Rule as the data show it: active = growth inhibition above about 70%; inactive = the rest.
Use one of these outcomes when replying: YES for active, NO for inactive

{"columns": ["molecule", "class.assignment"],
 "data": [
  ["CC(C)CCCC(C)C1CCC2C3CC=C4CC(OC(=O)Nc5ccc(S(=O)(=O)c6ccc(F)cc6)cc5)CCC4(C)C3CCC12C (stereo unspecified)", "NO"],
  ["CCCCCCCCNS(=O)(=O)c1ccc(N)cc1", "NO"],
  ["Cc1cc2nc3[nH]c4c(Cl)cc(Cl)cc4c3nc2cc1C", "NO"],
  ["O=C1C2CCCC3CCCC(C(=O)N1O)C32 (stereo unspecified)", "YES"],
  ["CC(=O)N1c2ccccc2Sc2c1ccc1ccccc21", "YES"],
  ["O=C(NO)Nc1nc(Cl)c(Cl)nc1Cl", "YES"]
]}

Recorded test outcome, item `CCOC(=O)/C(C#N)=C\c1ccc(N(CCC(=O)O)CCC(=O)O)c(I)c1`
YES

----------
# growth inhibition per record follows
Test: NCI Yeast Anticancer Drug Screen. Data for the rad50 strain (AID 155);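 further: 0% = growth of vehicle-only cultures of the same strain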
Conditions: S. cerevisiae rad50 strain growth inhibition; at 50.0 µM; stronger effect = higher value
About 79,000 compounds went through this panel and 15% of them were active in at least one assay; those are over-represented in the sample as a whole. Where a SMILES comes first, the peptide text is derived from it. [ ]: non-standard residue; d: D form. Phe(4-Cl) = N[CH](Cc1ccc(Cl)cc1)C(=O)O; 3Pal = N[CH](Cc1cccnc1)C(=O)O
Quick reminder: number only, in %, skip the unit.

Illustrative cases are given below, each with its answer.
{"columns": ["molecule", "measure", "quantitative.readout"],
 "data": [
  ["CC(C)Cc1ccc(C(C)/C=C2\\CCC(CN3CCCCC3)C2=O)cc1 (stereo unspecified)", "growth inhibition", 92.3],
  ["CCCCCCCCCCCC[S+](C)C", "growth inhibition", 44.9],
  ["Clc1ccc(OCC2CO2)c(Cl)c1 (stereo unspecified)", "growth inhibition", 96.6],
  ["C/C=C\\C(/C=C/C)(C(=O)OCCN(C)C)C(/C=C\\C)(/C=C/C)C(=O)OCCN(C)C (stereo unspecified)", "growth inhibition", 98],
  ["COc1ccc(/C=C/Cc2cc3c(cc2O)OCO3)cc1", "growth inhibition", -4.05],
  ["COc1ccccc1CN1CCCN(Cc2ccccc2OC)C1c1cc(Cl)cc(Cl)c1O", "growth inhibition", 69.2],
  ["CN1CCN(C2=C(Cl)C3(OCCS3)C(F)(F)C2(F)F)CC1 (stereo unspecified)", "growth inhibition", 34.1],
  ["COc1ccc(/C(C#N)=C(/N)SCc2ccccc2Cl)cc1", "growth inhibition", 90.9],
  ["O=c1[nH]c2ccc([N+](=O)[O-])c(Cl)c2c2ccccc12", "growth inhibition", 9.1],
  ["COC(CO)(OC)c1ccccc1", "growth inhibition", -0.65]
]}

Specify measured growth inhibition for `CSC(=S)N/N=C/c1cccc(C)n1` .
95.1

Specify measured growth inhibition for CC(=O)NC(Cc1ccc(Cl)cc1)C(=O)NC(Cc1ccc(Cl)cc1)C(=O)NC(Cc1cccnc1)C(=O)NC(CO)C(=O)NC(Cc1ccc(O)cc1)C(=O)NC(CCCN=C(N)N)C(=O)NC(CC(C)C)C(=O)NC(CCCN=C(N)N)C(=O)N1CCCC1C(=O)NC(C)C(=O)O (stereo unspecified) (Ac-[Phe(4-Cl)][Phe(4-Cl)][3Pal]SYRLRPA-OH; configuration not given here) .
18.1

Specify measured growth inhibition for CC(=O)c1c2c(cc3c1CC1(Cc4cc5c(cc4C1)C(=O)CCC5)C3)CCCC2 (stereo unspecified) .
-15.8

Specify measured growth inhibition for O=C1C=CC(=O)C2C1Cc1ccccc1C2c1ccccc1 (stereo unspecified) .
98.8

Specify measured growth inhibition for `Cc1cc(Br)c2ccccc2c1N` .
88.3
